# System: MDA-MB-231 (breast, adenocarcinoma) cells
# assayExplanation: Cell viability assay, CellTiter-Glo (Example 21)
# Type: cell-based, human
# assaySetup: 100 nM, 72 h treatment
observationType: MDA-MB-231 (breast, adenocarcinoma) cell viability (% of control)

| compound | experimentalResult |
| --- | --- |
| O=C1C2=C(CCN(Cc3cc(F)cc(F)c3)C2)N2CCN=C2N1Cc1ccc(C(F)(F)F)cc1 | 52.1 ± 1.8 % of control |
| O=C1C2=C(CCN(Cc3cccc(F)c3)C2)N2CCN=C2N1Cc1ccc(C(F)(F)F)cc1 [I/3, reference compound] | 56.5 ± 3.4 % of control |
| O=C1C2=C(CCN(Cc3cccc(F)c3)C2)N2CCN=C2N1Cc1ccc(F)cc1 [I/6, reference compound] | 57.7 ± 3.8 % of control |
| O=C1C2=C(CCN(Cc3ccccc3)C2)N2CCN=C2N1Cc1ccc(C(F)(F)F)cc1 [I/1, reference compound] | 87.9 ± 4.4 % of control |

Look at each compound and report its MDA-MB-231 (breast, adenocarcinoma) cell viability (% of control).
1. O=C1C2=C(CCN(Cc3cc(F)cc(F)c3)C2)N2CCN=C2N1Cc1ccc(F)cc1
2. [N-]=[N+]=Nc1ccc(CN2C(=O)C3=C(CCN(Cc4cc(F)cc(F)c4)C3)N3CCN=C23)cc1
3. O=C1C2=C(CCN(Cc3cc(F)cc(F)c3)C2)N2CCN=C2N1Cc1ccc(Cl)cc1
4. [N-]=[N+]=Nc1cccc(CN2CCC3=C(C2)C(=O)N(Cc2ccc(Cl)cc2)C2=NCCN23)c1
5. [N-]=[N+]=Nc1cccc(CN2CCC3=C(C2)C(=O)N(Cc2ccc(C(F)(F)F)cc2)C2=NCCN23)c1

A:
58.6 ± 3.0 % of control
57.3 ± 1.8 % of control
55.9 ± 5.3 % of control
58.2 ± 2.5 % of control
56.9 ± 2.2 % of control
